Assign viability, T/C to each entry below.
Test system: 926638-142-R-J1-PDC complex spheroid viability;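 note: spheroids exposed to drugs for one week before readout; percent viability relative to DMSO vehicle control wells set as 100%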
Assay: Anticancer human tumor 926638-142-R-J1-PDC patient-derived endometrial carcinoma cell line growth inhibition [POLQ]
Conditions: second compound 1 µM; first compound 0.000316 µM; hits give low values
Experimental: Multicellular complex tumor spheroid response to Polymerase (POL) inhibitors (novobiocin, ART-558, RP6685) in combination with a variety of drugs and investigational agents in selected tumor cell lines The POL inhibitors (novobiocin, ART-558, and RP6685) were evaluated both individually and in combination with standard of care and investigational anticancer small molecules within a complex spheroid model of solid tumors. . […]
The response must be a number in % with no trailing unit.

Task: Supply measured viability, T/C of Cn1ncnc1[C@H]1c2n[nH]c(=O)c3cc(F)cc(c23)N[C@@H]1c1ccc(F)cc1 + Cc1cccc(N(C)C(=O)C2C(O)CCN2c2nc(C)cc(C(F)(F)F)c2C#N)c1 in your reply.
Result: 103

Task: Supply measured viability, T/C of CC[C@@]1(O)C(=O)OCc2c1cc1n(c2=O)Cc2cc3c(CN(C)C)c(O)ccc3nc2-1 + COC1C(OC(N)=O)C(O)C(Oc2ccc3c(O)c(NC(=O)c4ccc(O)c(CC=C(C)C)c4)c(=O)oc3c2C)OC1(C)C in your reply.
Result: 83.4

Task: Supply measured viability, T/C of Cn1ncnc1[C@H]1c2n[nH]c(=O)c3cc(F)cc(c23)N[C@@H]1c1ccc(F)cc1 + Nc1ccc(C#CCN(C(=O)Cc2ncc(C(F)(F)F)cc2C(F)(F)F)c2ccc(F)cc2)nn1 in your reply.
Result: 108

Task: Supply measured viability, T/C of CC[C@@]1(O)C(=O)OCc2c1cc1n(c2=O)Cc2cc3c(CN(C)C)c(O)ccc3nc2-1 + Cc1cccc(N(C)C(=O)C2C(O)CCN2c2nc(C)cc(C(F)(F)F)c2C#N)c1 in your reply.
Result: 93.7

Task: Supply measured viability, T/C of CC[C@@]1(O)C(=O)OCc2c1cc1n(c2=O)Cc2cc3c(CN(C)C)c(O)ccc3nc2-1 + Nc1ccc(C#CCN(C(=O)Cc2ncc(C(F)(F)F)cc2C(F)(F)F)c2ccc(F)cc2)nn1 in your reply.
Result: 100

Task: Supply measured viability, T/C of Cn1ncnc1[C@H]1c2n[nH]c(=O)c3cc(F)cc(c23)N[C@@H]1c1ccc(F)cc1 + COC1C(OC(N)=O)C(O)C(Oc2ccc3c(O)c(NC(=O)c4ccc(O)c(CC=C(C)C)c4)c(=O)oc3c2C)OC1(C)C in your reply.
Result: 85.5
